TARGET_ENTITY: T1, soluble KDR extracellular domain (ECD) (Calbiochem) (human, UniProt P35968 20-764)
T1 construct: extracellular domain; Bought protein; also called KDR-ECD; VEGF Receptor 2 D1-7, Cat. #676490
ASSAY_SUMMARY: Limited Antigen ELISA, KDR coat 25 ng/mL, supernatant 1:25
Friendly reminder: ELISA reading below 1 is TRUE, at or above is FALSE.

Reference set, count: 2
1) 1G6 (antibody, V domains shown, Fully human mAb from XenoMouse hybridoma, tested as hybridoma supernatant) VH: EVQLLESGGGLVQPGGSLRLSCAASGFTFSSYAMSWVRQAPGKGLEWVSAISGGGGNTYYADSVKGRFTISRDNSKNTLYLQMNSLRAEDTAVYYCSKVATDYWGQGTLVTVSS VL: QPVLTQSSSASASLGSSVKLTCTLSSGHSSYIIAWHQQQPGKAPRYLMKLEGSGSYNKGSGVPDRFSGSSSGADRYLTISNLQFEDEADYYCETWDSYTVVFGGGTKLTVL | TRUE
2) 33E1 (antibody, V domains shown, Fully human mAb from XenoMouse hybridoma, tested as hybridoma supernatant) VH: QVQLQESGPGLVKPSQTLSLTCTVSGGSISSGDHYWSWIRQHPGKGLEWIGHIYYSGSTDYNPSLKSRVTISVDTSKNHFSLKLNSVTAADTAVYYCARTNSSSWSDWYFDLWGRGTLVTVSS VL: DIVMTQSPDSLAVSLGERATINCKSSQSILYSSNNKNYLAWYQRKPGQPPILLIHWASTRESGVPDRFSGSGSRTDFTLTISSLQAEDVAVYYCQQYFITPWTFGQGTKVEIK | TRUE

input: ELISA reading under 1? Item: 27A3 (antibody, V domains shown, Fully human mAb from XenoMouse hybridoma, tested as hybridoma supernatant) VH: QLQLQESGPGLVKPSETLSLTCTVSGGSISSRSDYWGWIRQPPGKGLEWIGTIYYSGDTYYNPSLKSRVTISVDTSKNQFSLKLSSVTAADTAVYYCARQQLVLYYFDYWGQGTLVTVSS VL: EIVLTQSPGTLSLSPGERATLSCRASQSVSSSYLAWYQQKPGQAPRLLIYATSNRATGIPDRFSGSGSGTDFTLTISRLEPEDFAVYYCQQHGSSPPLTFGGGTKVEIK
output: FALSE

input: ELISA reading under 1? Item: 29A3 (antibody, V domains shown, Fully human mAb from XenoMouse hybridoma, tested as hybridoma supernatant) VH: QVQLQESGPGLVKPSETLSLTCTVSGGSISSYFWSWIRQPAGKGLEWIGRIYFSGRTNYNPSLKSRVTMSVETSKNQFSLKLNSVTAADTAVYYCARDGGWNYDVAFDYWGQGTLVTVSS VL: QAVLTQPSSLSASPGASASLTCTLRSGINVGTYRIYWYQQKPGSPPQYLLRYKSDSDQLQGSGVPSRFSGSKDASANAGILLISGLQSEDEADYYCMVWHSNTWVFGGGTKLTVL
output: FALSE

input: ELISA reading under 1? Item: 21H9 (antibody, V domains shown, Fully human mAb from XenoMouse hybridoma, tested as hybridoma supernatant) VH: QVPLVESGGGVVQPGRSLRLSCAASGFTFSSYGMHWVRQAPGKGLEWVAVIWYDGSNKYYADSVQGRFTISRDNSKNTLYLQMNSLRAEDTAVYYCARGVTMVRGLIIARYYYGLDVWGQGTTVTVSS VL: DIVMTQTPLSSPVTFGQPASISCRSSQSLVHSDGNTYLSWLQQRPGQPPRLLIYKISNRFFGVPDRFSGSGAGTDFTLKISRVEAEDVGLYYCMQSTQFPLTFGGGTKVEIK
output: FALSE
